Form field: IC50 (one value per entry).
- Experimental target: human muscarinic M3 receptor (Homo sapiens (Human))
- Sequence (P20309 whole entry): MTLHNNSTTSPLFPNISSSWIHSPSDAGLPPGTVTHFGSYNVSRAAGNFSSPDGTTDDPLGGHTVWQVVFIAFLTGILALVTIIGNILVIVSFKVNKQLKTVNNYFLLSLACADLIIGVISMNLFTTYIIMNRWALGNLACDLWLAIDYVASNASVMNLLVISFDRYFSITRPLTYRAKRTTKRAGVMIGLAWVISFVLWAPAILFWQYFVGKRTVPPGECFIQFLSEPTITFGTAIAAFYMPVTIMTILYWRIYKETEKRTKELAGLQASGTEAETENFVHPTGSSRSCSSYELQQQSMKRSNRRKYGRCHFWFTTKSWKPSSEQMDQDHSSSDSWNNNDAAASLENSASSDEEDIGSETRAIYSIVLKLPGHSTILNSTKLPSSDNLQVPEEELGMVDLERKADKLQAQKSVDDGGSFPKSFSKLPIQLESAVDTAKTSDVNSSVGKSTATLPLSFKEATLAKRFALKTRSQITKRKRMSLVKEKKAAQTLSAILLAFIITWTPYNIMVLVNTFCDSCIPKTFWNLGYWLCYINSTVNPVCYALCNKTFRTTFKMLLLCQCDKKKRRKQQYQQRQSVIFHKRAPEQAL
- Test description: Human muscarinic M3 receptor binding assay ([3H]-NMS, CHO-K1 membranes)
- Setup conditions: [3H]-NMS displacement, read-out: Binding IC50, nM M3
- Procedure: Test 2: Human Muscarinic M1, M2, M3, M4 and M5Receptors Binding Assays The study of binding to human muscarinic M1, M2, M3, M4 and M5 receptors was performed using commercial membranes (Perkin Elmer) prepared from CHO-K1 cells. […] Non-specific binding (NSB) was measured in the presence of 1 μM atropine. […] The affinity of each test compound to the receptors was determined by using ten different concentrations ran in duplicate. […]
Report as a plain number; the unit nM is understood.

Examples with their reported IC50 follow.
1. COc1cc(NC(=O)CCN(C)[C@H]2CC[C@](C)(OC(=O)C(O)(c3cccs3)c3cccs3)CC2)c(Cl)cc1CNC[C@H](O)c1ccc(O)c2[nH]c(=O)ccc12; 2.1
2. COc1cc(NC(=O)CCN(C)[C@H]2CC[C@H](OC(=O)C(O)(c3cccs3)c3cccs3)CC2)c(Cl)cc1CCNC[C@H](O)c1ccc(O)c2[nH]c(=O)ccc12; 0.7
3. COc1cc(NC(=O)OCCN(C)[C@H]2CC[C@H](OC(=O)[C@](O)(c3cccs3)C3CCCC3)CC2)c(Cl)cc1CNC[C@H](O)c1ccc(O)c2[nH]c(=O)ccc12; 3.8
4. COc1cc(NC(=O)OCCN(C)[C@H]2CC[C@H](OC(=O)[C@](O)(c3ccccc3)C3CCCC3)CC2)c(Cl)cc1CNC[C@H](O)c1ccc(O)c2[nH]c(=O)ccc12; 8.5
5. CN(CCC(=O)Nc1cc(F)c(CNC[C@H](O)c2ccc(O)c3[nH]c(=O)ccc23)cc1F)[C@H]1CC[C@H](OC(=O)C(O)(c2cccs2)c2cccs2)CC1; 1.6

Attention now shifts to the item below.
[Q] I have this compound here, COc1cc(NC(=O)OCCN(C)[C@H]2CC[C@H](OC(=O)C(O)(c3cccs3)c3cccs3)CC2)c(Cl)cc1CNC[C@H](O)c1ccc(O)c2c1OCC(=O)N2 , and I need its recorded IC50.
[A] 1.7
